- system: Cx43CT (Rattus norvegicus, UniProt P08050)
- Construct: GST (N, cleaved yes); made in house; host or cells: E. coli BL-21
- Sequence (P08050 255-382): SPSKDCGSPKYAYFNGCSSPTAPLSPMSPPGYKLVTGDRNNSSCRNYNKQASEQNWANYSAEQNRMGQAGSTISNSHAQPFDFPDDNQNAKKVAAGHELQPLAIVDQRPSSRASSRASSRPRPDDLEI
- assay explanation: Biased (XXXXRXPXXXX) phage display screening against Cx43CT
- Type: binding
- measurement setup: binding step at pH 6.5; 120 inserts sequenced
observation type: Frequency Run 1 (%)
Unit % implied. Number only.

Field: example entries. Status: answers known.
>  <chain>
DVPGRDPGYIKGGGSAHARVPFYSHSLNRNRKPSLYQ (RXP-containing peptide) [RXP-A]

>  <Frequency Run 1 (%)>
20.8

$$$$
>  <chain>
GIAAREPNSHDGGGSAHARVPFYSHSRDLWRKPAKSL (RXP-containing peptide)

>  <Frequency Run 1 (%)>
12.5

$$$$
>  <chain>
WEEPRRPFTMSGGGSAETHARVPFYSHSPMRHRLPGVHL (RXP-containing peptide) [RXP-D]

>  <Frequency Run 1 (%)>
16.7

$$$$

For the next question, use this sequence.
Prompt line: Query: Frequency Run 1 (%); subject: EIQPRSPLMFSGGGSAHARVPFYSHSAKEARWPRAHR (RXP-containing peptide) [RXP-B]
Response line: 6.7

----------
Entries annotated with measured Frequency Run 2(%)
- system: Cx43CT (Rattus norvegicus, UniProt P08050)
- Construct: GST (N, cleaved yes); made in house; host or cells: E. coli BL-21
- assay explanation: Biased (XXXXRXPXXXX) phage display screening against Cx43CT
- Assay type: binding
- measurement setup: binding step at pH 6.5; 119 inserts sequenced

Field: example entries. Status: answers known.
>  <chain>
DVPGRDPGYIKGGGSAHARVPFYSHSLNRNRKPSLYQ (RXP-containing peptide) [RXP-A]

>  <Frequency Run 2(%)>
64.7%

$$$$
>  <chain>
WEEPRRPFTMSGGGSAETHARVPFYSHSPMRHRLPGVHL (RXP-containing peptide) [RXP-D]

>  <Frequency Run 2(%)>
0.8%

$$$$
>  <chain>
GIAAREPNSHDGGGSAHARVPFYSHSRDLWRKPAKSL (RXP-containing peptide)

>  <Frequency Run 2(%)>
11.8%

$$$$

For the next question, use this sequence.
Prompt line: Query: Frequency Run 2(%); subject: EIQPRSPLMFSGGGSAHARVPFYSHSAKEARWPRAHR (RXP-containing peptide) [RXP-B]
Response line: 2.5%

----------
- system: Cx43CT (Rattus norvegicus)
- Construct: GST (N, cleaved yes); made in house; host or cells: E. coli BL-21
- assay explanation: Biased (XXXXRXPXXXX) phage display screening against Cx43CT
- Format: binding
- measurement setup: binding step at pH 7.4; 163 inserts sequenced
observation type: Frequency Run 3 (%)

>  <chain>
WEEPRRPFTMSGGGSAETHARVPFYSHSPMRHRLPGVHL (RXP-containing peptide) [RXP-D]

>  <Frequency Run 3 (%)>
1.8%

$$$$
>  <chain>
GIAAREPNSHDGGGSAHARVPFYSHSRDLWRKPAKSL (RXP-containing peptide)

>  <Frequency Run 3 (%)>
19.6%

$$$$
>  <chain>
DVPGRDPGYIKGGGSAHARVPFYSHSLNRNRKPSLYQ (RXP-containing peptide) [RXP-A]

>  <Frequency Run 3 (%)>
36.2%

$$$$

For the next question, use this sequence.
Prompt line: Query: Frequency Run 3 (%); subject: EIQPRSPLMFSGGGSAHARVPFYSHSAKEARWPRAHR (RXP-containing peptide) [RXP-B]
Response line: 13.5%

----------
- system: Cx43CT (Rattus norvegicus, UniProt P08050)
- Construct: GST (N, cleaved yes); made in house; host or cells: E. coli BL-21
- assay explanation: Biased (XXXXRXPXXXX) phage display screening against Cx43CT
- Type: binding
- measurement setup: all three runs; 402 inserts sequenced
observation type: Total Frequency (%)
Remember to follow the number with its unit.

Prompt line: Query: Total Frequency (%); subject: WEEPRRPFTMSGGGSAETHARVPFYSHSPMRHRLPGVHL (RXP-containing peptide) [RXP-D]
Response line: 6%

----------
- system: Cx43CT (Rattus norvegicus, UniProt P08050)
- Construct: GST (N, cleaved yes); made in house; host or cells: E. coli BL-21
- assay explanation: Biased (XXXXRXPXXXX) phage display screening against Cx43CT
- Assay type: binding
- measurement setup: all three runs; 402 inserts sequenced
Entries annotated with measured Total Frequency (%)
Remember to follow the number with its unit.

Field: example entries. Status: answers known.
>  <chain>
GIAAREPNSHDGGGSAHARVPFYSHSRDLWRKPAKSL (RXP-containing peptide)

>  <Total Frequency (%)>
15.2%

$$$$
>  <chain>
DVPGRDPGYIKGGGSAHARVPFYSHSLNRNRKPSLYQ (RXP-containing peptide) [RXP-A]

>  <Total Frequency (%)>
40%

$$$$

Prompt line: Query: Total Frequency (%); subject: EIQPRSPLMFSGGGSAHARVPFYSHSAKEARWPRAHR (RXP-containing peptide) [RXP-B]
Response line: 8.2%

Origin of values: patent US20090075291A1
